Measured pIC50 by item
molecular target: Pim-2 (Homo sapiens); construct: full-length human recombinant His6-labelled Pim-1, Pim-2 or Pim-3 protein; His6; assay: TR-FRET assay of Pim kinase activity (phosphorylation of Bad Ser112), Pim-2; details: ATP 40 μM, read-out: IC50 Pim2
pIC50: −log10 of the molar value.
measure-name: pIC50

>>> result("NC1(CNC(=O)c2ccc(-c3c(F)cnc4[nH]c5cnc(-c6cccnc6)cc5c34)cc2)CC1")
"> 7.00"
>>> result("COCCOc1cnc2[nH]c3cnc(-c4cccnc4)cc3c2c1-c1ccc(C(=O)NCCN(C)C)cc1")
"> 7.00"
>>> result("CN1CCN(CCNC(=O)c2ccc(-c3c(F)cnc4[nH]c5cnc(-c6cccnc6)cc5c34)cc2)CC1")
"5.30 to 6.00"
>>> result("CN1CCN(C(=O)c2ccc(-c3c(F)cnc4[nH]c5cnc(-c6cccnc6)cc5c34)cc2)CC1")
"5.30 to 6.00"
>>> result("N[C@H]1CCC[C@@H]1NC(=O)c1ccc(-c2c(F)cnc3[nH]c4cnc(-c5cccnc5)cc4c23)cc1")
"> 7.00"
>>> result("CN1CCN(NC(=O)c2ccc(-c3c(F)cnc4[nH]c5cnc(-c6cnn(C)c6)cc5c34)cc2)CC1")
"6.00 to 7.00"
>>> result("COCCN1CCN(C(=O)c2ccc(-c3c(F)cnc4[nH]c5cnc(-c6cccnc6)cc5c34)cc2)CC1")
"< 5.30"
>>> result("CN(C)CC(C)(C)CNC(=O)c1ccc(-c2c(F)cnc3[nH]c4cnc(-c5cccnc5)cc4c23)cc1")
"6.00 to 7.00"
>>> result("O=C(c1ccc(-c2c(F)cnc3[nH]c4cnc(-c5cccnc5)cc4c23)cc1)N1CCOCC1")
"5.30 to 6.00"
>>> result("O=C(NCCN1CCCCCC1)c1ccc(-c2c(F)cnc3[nH]c4cnc(-c5cccnc5)cc4c23)cc1")
"6.00 to 7.00"
>>> result("CC(C)(N)CNC(=O)c1ccc(-c2c(F)cnc3[nH]c4cnc(-c5cccnc5)cc4c23)cc1")
"> 7.00"
>>> result("O=C(NCCCN1CCCC1)c1ccc(-c2c(F)cnc3[nH]c4cnc(-c5cccnc5)cc4c23)cc1")
"6.00 to 7.00"
>>> result("CN1CCC(NC(=O)c2ccc(-c3c(F)cnc4[nH]c5cnc(-c6cnn(C)c6Cl)cc5c34)cc2)CC1")
"> 7.00"
>>> result("CC(C)N(CCNC(=O)c1ccc(-c2c(F)cnc3[nH]c4cnc(-c5cccnc5)cc4c23)cc1)C(C)C")
"6.00 to 7.00"
>>> result("N[C@H]1CCCC[C@@H]1NC(=O)c1ccc(-c2c(F)cnc3[nH]c4cnc(-c5cccnc5)cc4c23)cc1")
"> 7.00"
>>> result("CC1CCCCN1CCNC(=O)c1ccc(-c2c(F)cnc3[nH]c4cnc(-c5cccnc5)cc4c23)cc1 (stereo not shown)")
"6.00 to 7.00"
>>> result("CN(C)CCNC(=O)c1ccc(-c2c(F)cnc3[nH]c4cnc(-c5cccnc5)cc4c23)cc1")
"> 7.00"
>>> result("CN(C)C1CCCN(C(=O)c2ccc(-c3c(F)cnc4[nH]c5cnc(-c6cccnc6)cc5c34)cc2)C1 (stereo not shown)")
"5.30 to 6.00"
>>> result("COCCCNC(=O)c1ccc(-c2c(F)cnc3[nH]c4cnc(-c5cccnc5)cc4c23)cc1")
"5.30 to 6.00"
>>> result("CCN1CCC[C@H]1CNC(=O)c1ccc(-c2c(F)cnc3[nH]c4cnc(-c5cccnc5)cc4c23)cc1")
"6.00 to 7.00"
>>> result("CC(N)(CNC(=O)c1ccc(-c2c(F)cnc3[nH]c4cnc(-c5cccnc5)cc4c23)cc1)C(F)(F)F (stereo not shown)")
"5.30 to 6.00"
>>> result("CN1CCC(N(C)C(=O)c2ccc(-c3c(F)cnc4[nH]c5cnc(-c6cccnc6)cc5c34)cc2)C1 (stereo not shown)")
"5.30 to 6.00"

* * *

Measured IC50 by item
biological target: Pim-2 (Homo sapiens, UniProt Q9P1W9); construct: full-length human recombinant His6-labelled Pim-1, Pim-2 or Pim-3 protein; His6; experiment: TR-FRET assay of Pim kinase activity (phosphorylation of Bad Ser112), Pim-2; details: ATP 40 μM, read-out: IC50 Pim2
Sequence (Q9P1W9 whole entry): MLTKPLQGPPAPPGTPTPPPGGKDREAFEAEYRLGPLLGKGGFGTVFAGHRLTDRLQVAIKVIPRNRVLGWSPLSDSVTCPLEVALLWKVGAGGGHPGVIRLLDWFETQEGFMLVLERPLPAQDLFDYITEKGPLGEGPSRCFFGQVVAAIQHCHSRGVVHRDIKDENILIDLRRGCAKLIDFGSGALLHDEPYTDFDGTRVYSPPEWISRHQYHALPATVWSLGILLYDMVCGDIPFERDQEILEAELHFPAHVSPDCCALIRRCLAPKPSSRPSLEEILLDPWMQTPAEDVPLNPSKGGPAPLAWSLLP
measure-name: IC50

>>> result("CN1CCN(NC(=O)c2ccc(-c3c(F)cnc4[nH]c5cnc(-c6cccnc6)cc5c34)cc2)CC1 [Example 7]")
"100 to 1000 nM"
>>> result("CN(CC1CCCCN1C)C(=O)c1ccc(-c2c(F)cnc3[nH]c4cnc(-c5cccnc5)cc4c23)cc1 (stereo not shown) [Example 64]")
"100 to 1000 nM"
>>> result("Cn1cc(-c2cc3c(cn2)[nH]c2ncc(F)c(-c4ccc(C(N)=O)cc4)c23)cn1 [Example 104]")
"100 to 1000 nM"
>>> result("CN(C)CCN(C)C(=O)c1ccc(-c2c(F)cnc3[nH]c4cnc(-c5cccnc5)cc4c23)cc1 [Example 23]")
"< 100 nM"

* * *

molecular target: PLK1 (Homo sapiens, UniProt P53350)
Sequence (P53350 whole entry, species assumed): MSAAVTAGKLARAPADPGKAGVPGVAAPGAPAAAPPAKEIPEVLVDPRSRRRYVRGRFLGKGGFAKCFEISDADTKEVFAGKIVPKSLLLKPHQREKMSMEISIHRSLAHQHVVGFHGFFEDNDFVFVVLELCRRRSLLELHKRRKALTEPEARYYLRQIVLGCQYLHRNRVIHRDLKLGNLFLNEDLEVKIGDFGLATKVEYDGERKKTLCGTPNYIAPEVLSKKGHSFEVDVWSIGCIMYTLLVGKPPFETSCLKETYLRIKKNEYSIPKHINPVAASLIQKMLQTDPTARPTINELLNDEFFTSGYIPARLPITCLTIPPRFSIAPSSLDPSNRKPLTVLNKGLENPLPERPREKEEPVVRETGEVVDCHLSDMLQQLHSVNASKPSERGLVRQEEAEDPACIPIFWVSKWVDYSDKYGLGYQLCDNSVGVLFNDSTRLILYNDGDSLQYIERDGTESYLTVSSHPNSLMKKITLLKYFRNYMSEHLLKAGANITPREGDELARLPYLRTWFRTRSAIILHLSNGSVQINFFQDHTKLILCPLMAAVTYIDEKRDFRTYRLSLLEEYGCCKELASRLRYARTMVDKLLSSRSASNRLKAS
Measured IC50 by item
measure-name: IC50

>>> result("CN(C)CCCCNC(=O)c1ccc(-c2c(F)cnc3[nH]c4cnc(-c5cccnc5)cc4c23)cc1")
"1000 to 5000 nM"
>>> result("O=C(NCCCN1CCCC1)c1ccc(-c2c(F)cnc3[nH]c4cnc(-c5cccnc5)cc4c23)cc1")
"100 to 1000 nM"
>>> result("CN1CCN(NC(=O)c2ccc(-c3c(F)cnc4[nH]c5cnc(-c6cnn(C)c6Cl)cc5c34)cc2)CC1")
"1000 to 5000 nM"
>>> result("CS(=O)(=O)NCCNC(=O)c1ccc(-c2c(F)cnc3[nH]c4cnc(-c5cccnc5)cc4c23)cc1")
"100 to 1000 nM"
>>> result("CC(C)N(CCNC(=O)c1ccc(-c2c(F)cnc3[nH]c4cnc(-c5cccnc5)cc4c23)cc1)C(C)C")
"100 to 1000 nM"
>>> result("CCNCCNC(=O)c1ccc(-c2c(F)cnc3[nH]c4cnc(-c5cccnc5)cc4c23)cc1")
"100 to 1000 nM"
>>> result("COCCN1CCN(C(=O)c2ccc(-c3c(F)cnc4[nH]c5cnc(-c6cccnc6)cc5c34)cc2)CC1")
"100 to 1000 nM"
>>> result("O=C(NCCNCCO)c1ccc(-c2c(F)cnc3[nH]c4cnc(-c5cccnc5)cc4c23)cc1")
"100 to 1000 nM"
>>> result("CN1CCN(NC(=O)c2ccc(-c3c(F)cnc4[nH]c5cnc(-c6cccnc6)cc5c34)cc2)CC1")
"100 to 1000 nM"
>>> result("CC(C)(N)CNC(=O)c1ccc(-c2c(F)cnc3[nH]c4cnc(-c5cccnc5)cc4c23)cc1")
"100 to 1000 nM"
>>> result("CC(N)(CNC(=O)c1ccc(-c2c(F)cnc3[nH]c4cnc(-c5cccnc5)cc4c23)cc1)C(F)(F)F (stereo not drawn)")
"100 to 1000 nM"
>>> result("CNCCNC(=O)c1ccc(-c2c(F)cnc3[nH]c4cnc(-c5cccnc5)cc4c23)cc1")
"100 to 1000 nM"
>>> result("O=C(NCc1ncc[nH]1)c1ccc(-c2c(F)cnc3[nH]c4cnc(-c5cccnc5)cc4c23)cc1")
"< 100 nM"
>>> result("CCN(CC)CCN(C)C(=O)c1ccc(-c2c(F)cnc3[nH]c4cnc(-c5cccnc5)cc4c23)cc1")
"1000 to 5000 nM"
>>> result("NC1(CNC(=O)c2ccc(-c3c(F)cnc4[nH]c5cnc(-c6cccnc6)cc5c34)cc2)CC1")
"100 to 1000 nM"
>>> result("CCN1CCCC(NC(=O)c2ccc(-c3c(F)cnc4[nH]c5cnc(-c6cccnc6)cc5c34)cc2)C1 (stereo not drawn)")
"100 to 1000 nM"
>>> result("O=C(NCc1nnn[nH]1)c1ccc(-c2c(F)cnc3[nH]c4cnc(-c5cccnc5)cc4c23)cc1")
"< 100 nM"
>>> result("CN1CCC(NC(=O)c2ccc(-c3c(F)cnc4[nH]c5cnc(-c6cccnc6)cc5c34)cc2)CC1")
"1000 to 5000 nM"
>>> result("CCN(CCN(C)C)C(=O)c1ccc(-c2c(F)cnc3[nH]c4cnc(-c5cccnc5)cc4c23)cc1")
"100 to 1000 nM"
>>> result("O=C(NCCN1CCOCC1)c1ccc(-c2c(F)cnc3[nH]c4cnc(-c5cccnc5)cc4c23)cc1")
"1000 to 5000 nM"
>>> result("CN(C)CCCNC(=O)c1ccc(-c2c(F)cnc3[nH]c4cnc(-c5cccnc5)cc4c23)cc1")
"1000 to 5000 nM"
>>> result("CN(C)CCCN(C)C(=O)c1ccc(-c2c(F)cnc3[nH]c4cnc(-c5cccnc5)cc4c23)cc1")
"1000 to 5000 nM"
>>> result("CN1CCC(N(C)C(=O)c2ccc(-c3c(F)cnc4[nH]c5cnc(-c6cccnc6)cc5c34)cc2)C1 (stereo not drawn)")
"1000 to 5000 nM"
>>> result("CN(C)CCNC(=O)c1ccc(-c2ccnc3[nH]c4cnc(-c5cnn(C)c5)cc4c23)cc1")
"100 to 1000 nM"
>>> result("CN1CCC(CNC(=O)c2ccc(-c3c(F)cnc4[nH]c5cnc(-c6cccnc6)cc5c34)cc2)CC1")
"1000 to 5000 nM"
>>> result("CN1CCC(CCNC(=O)c2ccc(-c3c(F)cnc4[nH]c5cnc(-c6cccnc6)cc5c34)cc2)CC1")
"1000 to 5000 nM"
>>> result("CN1CCN(CCNC(=O)c2ccc(-c3c(F)cnc4[nH]c5cnc(-c6cccnc6)cc5c34)cc2)CC1")
"1000 to 5000 nM"
>>> result("CCN1CCCC1CNC(=O)c1ccc(-c2c(F)cnc3[nH]c4cnc(-c5cccnc5)cc4c23)cc1 (stereo not drawn)")
"100 to 1000 nM"
>>> result("NCCNC(=O)c1ccc(-c2c(F)cnc3[nH]c4cnc(-c5cccnc5)cc4c23)cc1")
"100 to 1000 nM"
>>> result("CN(C)CCNC(=O)c1ccc(-c2c(F)cnc3[nH]c4cnc(-c5cccnc5)cc4c23)cc1")
"100 to 1000 nM"

Sourced from patent US20120208809A1
